- Tested on: Chikungunya virus
- protocol-notes: Antiviral activity against CHIKV 899 infected in African green monkey Vero cells measured after 7 days
- Format: functional, organism-based
- experimental-parameters: Chikungunya virus, 899, Vero, 168 h
metric: log10 EC50 (log10 of the value in µM)

molecule=COc1ccccc1Nc1nc(S)nc2ccccc12 reported_measurement=2.35
molecule=CC(C)(C)c1ccc2oc(=O)cc(CSc3nc(Nc4ccccc4)c4ccccc4n3)c2c1 reported_measurement=0.60
molecule=CC(C)(C)c1ccc2oc(=O)cc(CSc3nc(Nc4ccncc4)c4ccccc4n3)c2c1 reported_measurement=0.29
molecule=COc1ccccc1Nc1nc(SCc2cc(=O)oc3ccc(C(C)(C)C)cc23)nc2ccccc12 reported_measurement=0.49
molecule=Cc1cccc(Nc2nc(SCc3cc(=O)oc4ccc(C(C)(C)C)cc34)nc3ccccc23)c1C reported_measurement=1.14
molecule=Sc1nc(Nc2cccc3ccccc23)c2ccccc2n1 reported_measurement=1.21

---

Here, each record is paired with measured logP data.
- protocol-notes: Lipophilicity, log P of the compound
- Assay type: physicochemical
- experimental-parameters: octanol/water
metric: logP

molecule=COc1ccccc1Nc1nc(SCc2cc(=O)oc3ccc(C(C)(C)C)cc23)nc2ccccc12 metric=logP reported_measurement=4.76
molecule=Cc1cccc(Nc2nc(SCc3cc(=O)oc4ccc(C(C)(C)C)cc34)nc3ccccc23)c1C metric=logP reported_measurement=5.04
molecule=Cc1ccc(Nc2nc(SCc3cc(=O)oc4ccc(C(C)(C)C)cc34)nc3ccccc23)c(C)c1 metric=logP reported_measurement=5.03
molecule=CC(C)(C)c1ccc2oc(=O)cc(CSc3nc(Nc4ccncc4)c4ccccc4n3)c2c1 metric=logP reported_measurement=3.93
molecule=CC(C)(C)c1ccc2oc(=O)cc(CSc3nc(Nc4ccccc4)c4ccccc4n3)c2c1 metric=logP reported_measurement=4.88

---

- protocol-notes: Selectivity index, ratio of CC50 for cytotoxicity against human cells over EC50 for antiviral activity against CHIKV 899 infected in African green monkey Vero cells
- Format: toxicity, cell-based
- experimental-parameters: read-out: Ratio CC50/EC50
metric: selectivity ratio

molecule=COc1ccc(CNc2nc(S)nc3ccccc23)cc1 readout_relation=> reported_measurement=1
molecule=Cc1cccc(Nc2nc(SCc3cc(=O)oc4ccc(C(C)(C)C)cc34)nc3ccccc23)c1C readout_relation== reported_measurement=10.8
molecule=Cc1ccc(Nc2nc(S)nc3ccccc23)c(C)c1 readout_relation== reported_measurement=2.4
molecule=Cc1cccc(Nc2nc(S)nc3ccccc23)c1C readout_relation== reported_measurement=3.4
molecule=COc1ccc(CNc2nc(SCc3cc(=O)oc4ccc(C(C)(C)C)cc34)nc3ccccc23)cc1 readout_relation=> reported_measurement=1.7
molecule=Sc1nc(Nc2ccccc2)c2ccccc2n1 readout_relation== reported_measurement=2.5
molecule=CC(C)(C)c1ccc2oc(=O)cc(CSc3nc(Nc4ccccc4)c4ccccc4n3)c2c1 readout_relation== reported_measurement=37.2
molecule=Sc1nc(Nc2cccc3ccccc23)c2ccccc2n1 readout_relation== reported_measurement=7.4
molecule=COc1ccccc1Nc1nc(S)nc2ccccc12 readout_relation== reported_measurement=1.3
molecule=CC(C)(C)c1ccc2oc(=O)cc(CSc3nc(Nc4ccncc4)c4ccccc4n3)c2c1 readout_relation== reported_measurement=8.8
molecule=Sc1nc(Nc2ccncc2)c2ccccc2n1 readout_relation== reported_measurement=1.1
molecule=COc1ccccc1Nc1nc(SCc2cc(=O)oc3ccc(C(C)(C)C)cc23)nc2ccccc12 readout_relation== reported_measurement=16.8
